# System: LXFL 529
# Measurement Description: NCI tumour cell line growth inhibition, 48 h
The source made the active and inactive calls. Rule as the data show it: active = GI50 up to about 1.1 µM and inactive = higher.
Return exactly one item of t for active, f for inactive

For orientation, consider the following solved cases.
C[C@@]12CCC(=O)c3coc(c31)C(=O)c1cc3c(cc12)C(=O)C=CC3=O
f
O=[N+]([O-])c1cccc(C2=NN(c3ccccc3)C[N+](c3ccc(Br)cc3)=N2)c1
f
COC(=O)C(C(=O)c1ccccc1)C(C(=O)C(=O)Nc1ccc(OC)cc1OC)C(=O)C(=O)c1ccc(C)cc1 (stereo not given)
f
CC(C)(CN1CCCCC1)C(=O)/C=C/c1ccc(/C=C/C(=O)C(C)(C)CN2CCCCC2)cc1
t
COc1cc([C@@H]2c3cc4c(cc3[C@@H](NC(=O)c3ccc([N+](=O)[O-])cc3)C3COC(=O)[C@@H]32)OCO4)cc(OC)c1O (stereo not given in full)
f
Cc1nc2ccccc2c(=O)[nH]1
f
CN(C)C(=N/O)/C(=N\O)N(C)C
f
CC(=O)OC(/C=C1/C=CC(=O)O1)COC(=O)c1ccccc1 (stereo not given)
f

Enquiry: Recorded test call requested for O=C(CCc1nnc(S)[nH]1)NC12CC3CC(CC(C3)C1)C2
Return: f

Enquiry: Recorded test call requested for CCOC(=O)/C(C#N)=C1\N[C@H](C(=O)OCC)CO1
Return: f

* * *

# Tested on: EKVX
# Measurement Description: NCI tumour cell line growth inhibition, 48 h
The source made the active and inactive calls. Cut-off read from the data, not from the text of the source: active = GI50 up to about 1.1 µM and inactive = higher.
Return exactly one item of 1 for active, -1 for inactive

CCCC(=O)OCC1OC(n2cc(F)c(=O)[nH]c2=O)CC1OC(=O)CCC (stereo not given)
-1
CCOC(=O)/C=C(\C(=O)OCC)n1ccc(=O)n(Cc2cn(COCCOC(C)=O)nn2)c1=O
-1

Enquiry: Recorded test call requested for COC(=O)CN1c2nc(C#N)c(C#N)nc2N(CC(=O)OC)c2nc(C#N)c(C#N)nc21
Return: -1

Enquiry: Recorded test call requested for CCC(=O)OC1CCn2c1nc1c2C(=O)C(C)=C(N2CC2)C1=O (stereo not given)
Return: 1

Enquiry: Recorded test call requested for NC(=O)C1CCCN1C(=O)N(CCCl)N=O (stereo not given)
Return: -1

Enquiry: Recorded test call requested for C=CCn1c(-c2cc(C(C)(C)C)c(O)c(C(C)(C)C)c2)cs/c1=N\C(P(=O)(O)O)P(=O)(O)O
Return: -1

Enquiry: Recorded test call requested for Cc1ccc(/N=N\c2c(O)ccc3cc(S(=O)(=O)O)ccc23)cc1
Return: -1

Enquiry: Recorded test call requested for C[C@@]1(O)CC[C@]2(C)C3CCCC3[C@H]12 (stereo not given in full)
Return: -1

Enquiry: Recorded test call requested for COc1cccc2cc(C(=O)Nc3ccccn3)c(=N)oc12
Return: -1

Enquiry: Recorded test call requested for S=C(Nc1ccccn1)Nc1ccccc1Cl
Return: -1

* * *

# Test system: SNB-75
# Measurement Description: NCI tumour cell line growth inhibition, 48 h
The source made the active and inactive calls. No stated cut-off is given here; in the data, active = GI50 up to about 1.1 µM and inactive = higher.
Return exactly one item of active, inactive

Enquiry: Recorded test call requested for CC1(C)O[C@@H]2[C@@H]3OC(=O)C[C@@H]3[C@@H](COCc3ccccc3)[C@@H]2O1
Return: inactive

Enquiry: Recorded test call requested for CC(C)C1C(=O)N2CCCC2C2(O)OC(NC(=O)C3C=C4c5cccc6[nH]cc(c56)CC4N(C)C3)(C(C)C)C(=O)N12 (configuration not stated)
Return: inactive

Enquiry: Recorded test call requested for COc1cccc(C2SCC(=O)N2c2ccc(-c3ccc(-n4c(-c5ccccc5)nc5ccccc5c4=O)cc3)cc2)c1OC (configuration not stated)
Return: inactive

Enquiry: Recorded test call requested for CC1=C(/C=C/C(C)=C/C=C/C(C)=C/C(=O)OC2CC(n3cc(F)c(=O)[nH]c3=O)OC2CO)C(C)(C)CCC1 (configuration not stated)
Return: active

Enquiry: Recorded test call requested for COc1ccc(N2C(=O)C3CC(c4ccc(Br)cc4)c4c([nH]c5ccccc45)C3C2=O)cc1 (configuration not stated)
Return: inactive

Enquiry: Recorded test call requested for CCCC/C=C/C=C/C=C/CCCCCCCC(=O)OCC(COC(=O)CCCCCCC/C=C/C1C=CC(CCCC)C(C(=O)O)C1C(=O)O)OC(=O)CCCCCCC/C=C/C=C/C=C/CCCC.OCCNCO (configuration not stated)
Return: inactive

Enquiry: Recorded test call requested for COc1ccc(-c2cc(-c3ccccc3)[nH]c(=S)c2C#N)cc1
Return: inactive

* * *

# Test system: SNB-75
# Measurement Description: NCI tumour cell line growth inhibition, 48 h
Activity calls are given as the source filed them. Rule as the data show it: active = GI50 up to about 1.1 µM and inactive = higher.
Return exactly one item of active, inactive

O=[N+]([O-])c1ccc(N2C[N+](c3ccccc3)=NC(c3ccccc3)=N2)cc1
inactive
O=c1c2cc(Br)ccc2[nH]c(=S)n1-c1ccc(Br)cc1
inactive
C=CCSC1=N/C(=C\c2ccccc2)C(=O)N1CC=C
inactive
C/C(CCOC1CCCCO1)=C(\C)[Si](C)(C)C (centres undefined)
inactive
c1csc(-c2cc(-c3ccsc3)cs2)c1
inactive

Enquiry: Recorded test call requested for COc1ccc(N2C(=O)C(=O)N(C)C2=O)c2ccccc12
Return: inactive

Enquiry: Recorded test call requested for CSc1nc(=O)c2nc(-c3cccs3)c(-c3cccs3)nc2n1C
Return: inactive

Enquiry: Recorded test call requested for CC(C)N(O)C(=N)c1ccccc1
Return: inactive

* * *

Each entry below carries its reported GI50.
# System: MCF7
# Measurement Description: NCI tumour cell line growth inhibition, 48 h
Calls of active or inactive are those of the source. No stated cut-off is given here; in the data, active = GI50 up to about 1.1 µM and inactive = higher. Where a SMILES comes first, the peptide text is derived from it. The star is where a group is joined. Boc = CC(C)(C)OC(=O)*

# count of solved cases: 4
C=C1C(=O)CC2C(=O)C(C)(O)CC/C=C(\C)C(=O)CC12 (stereo not given)
11.2 µM (inactive)
CC(C)(C)OC(=O)NCC(=O)NCC(=O)NCC(=O)NCC(=O)O (Boc-GGGG-OH)
> 100 µM (inactive)
O=c1ccc2[n+]([O-])c3ccc(O)cc3oc-2c1 [RESAZURIN]
4.95 µM (inactive)
C=CCn1c(-c2cc(C(C)(C)C)c(O)c(C(C)(C)C)c2)cs/c1=N\C(P(=O)(O)O)P(=O)(O)O
> 100 µM (inactive)

Enquiry: Entry O=C(O)CCSc1nnc(COc2ccc(Cl)cc2)n1-c1ccccc1 : reported GI50 = ?
Return: > 100 µM (inactive)

Enquiry: Entry COc1ccccc1/C=C1\CCC(CN2CCOCC2)C1=O (stereo not given) : reported GI50 = ?
Return: 5.14 µM (inactive)

Enquiry: Entry O=C1/C(=C\c2cccc(Oc3ccccc3)c2)S(=O)(=O)C(c2ccccc2)N1c1cccc(Cl)c1 (stereo not given) : reported GI50 = ?
Return: 30.2 µM (inactive)

Enquiry: Entry CCOC(=O)c1cn(-c2ccc(Cl)cc2)c(=O)n2c1nc1ccccc12 : reported GI50 = ?
Return: > 100 µM (inactive)

Enquiry: Entry CN(C)C(=S)N/N=C(\C(=N/NC(=S)N(C)C)c1ccccn1)c1ccccn1 : reported GI50 = ?
Return: 1.66 µM (inactive)

Enquiry: Entry S=C(Nc1ccccn1)Nc1ccccc1Cl : reported GI50 = ?
Return: 5.98 µM (inactive)

* * *

# Test system: M14
# Measurement Description: NCI tumour cell line growth inhibition, 48 h
Activity calls are given as the source filed them. Rule as the data show it: active = GI50 up to about 1.1 µM and inactive = higher.
Return exactly one item of 1 (yes) (active), 0 (no) (inactive)

For orientation, consider the following solved cases.
CCCC(=O)OCC1OC(n2cc(F)c(=O)[nH]c2=O)CC1OC(=O)CCC (centres undefined)
1 (yes)
Cn1c2ccccc2n2c(N=O)c(-c3ccccc3)nc12
0 (no)
c1ccc2c3nc(C4CCCC4)nc-3c(NC3CCCC3)[nH]c2c1
0 (no)
CC1=C(C(=O)CC(=O)C(=O)Nc2ccccc2C)Sc2ccccc2N1
0 (no)
CCOC(=O)C1(CC(=O)O)CCCC1=O (centres undefined)
0 (no)

Enquiry: Recorded test call requested for O=C1/C(=C\c2cccc(Oc3ccccc3)c2)S(=O)(=O)C(c2ccccc2)N1c1cccc(Cl)c1 (centres undefined)
Return: 0 (no)

Enquiry: Recorded test call requested for CCOC(=O)/C=C(\C(=O)OCC)n1ccc(=O)n(Cc2cn(COCCOC(C)=O)nn2)c1=O
Return: 0 (no)

Enquiry: Recorded test call requested for CCN(CC)CCn1c(=O)c2c(C)c3oc4ccccc4oc3c(C)c2c1=O
Return: 0 (no)

* * *

# Tested on: OVCAR-4
# Measurement Description: NCI tumour cell line growth inhibition, 48 h
Calls of active or inactive are those of the source. No stated cut-off is given here; in the data, active = GI50 up to about 1.1 µM and inactive = higher.
Return exactly one item of T for active, F for inactive

For orientation, consider the following solved cases.
NC(=O)N/N=C(\CCC(=O)N(Cc1ccccc1)Cc1ccccc1)CC(=O)c1ccc(F)cc1
F
COc1ccc(-c2nc(N)c(C#N)c3c2CCS(=O)(=O)c2ccc(C)cc2-3)cc1OC
F
CC1CC2C(=O)N(c3ccccc3)C(=O)C2c2c1c1ccccc1n2Cc1ccccc1 (configuration not stated)
F
CCN(CC)CCn1c(=O)c2c(C)c3oc4ccccc4oc3c(C)c2c1=O
F
CN(C)CCCn1c2ccccc2c2cnccc21
F

Enquiry: Recorded test call requested for Nc1nc(N)c2cc(Sc3ccc4ccccc4c3)ccc2n1
Return: F

Enquiry: Recorded test call requested for COc1cc2ccc(C(C)NCC#N)cc2cc1OC (configuration not stated)
Return: F

Enquiry: Recorded test call requested for COc1nc2c(c(=O)n1C)N[C@H]1[C@H](OC(C)=O)[C@@H](OC(C)=O)CO[C@H]1N2
Return: F
